Form field: TGI (one value per entry).
test system: A549 NSCLC; assay: NCI tumour cell line growth inhibition, 48 h

compound | TGI
CC(=O)c1cccc(NC(=O)/C(=N\NC(=S)NN)C2C(=O)Nc3ccccc3S2=O)c1 (stereo not given) | > 100 µM
COc1ccc(-c2c(C#N)cnc(N)c2-c2nc3cc(C)c(C)cc3[nH]2)cc1 | 72.4 µM
CC(=O)CC(=O)ON(C)C(=O)Cc1ccccc1 | > 100 µM
COC(=O)CCc1c(/C=C2\N=C(c3ccc[nH]3)C=C2OC)[nH]c(C)c1C(=O)OCc1ccccc1 | 38.7 µM
CC(=O)Oc1cc2c(n(C)c1=O)CCC2 | > 100 µM
Cc1ccc(S(=O)(=O)N/N=C2\CC3C4CCC3C2C4)cc1 (stereo not given) | > 100 µM
NC(N)=N/N=C/c1ccc(Br)cc1 | 23.4 µM
CCCCn1c2c(n(CCCC)c1=[Se])-c1c(n(CCCC)c(=[Se])n1CCCC)S[Se][Se]S2 | > 61.3 µM
O=C1NC(=O)C2(CCc3ccc(N(CCCl)CCCl)cc32)N1 (stereo not given) | > 65 µM
CCCNC(=O)c1cc(NC(=O)c2cc(NC(=O)CCS(=O)(=O)OC)cn2C)cn1C | > 100 µM
